The reader will find reported growth values listed item by item below.
# Test system: SF-539 CNS
# test.method.notes: NCI-60 one-dose screen, 48 h (100 = growth as untreated, 0 = no growth, -100 = all killed)
# condition: 10 µM unless noted
This is part of a sample that, as a whole, favours compounds with a hit. Of some 83,000 tested, about 20% had one in any assay.

{"molecule": "CCOC(=O)c1sc2ncc(-c3ccc(OC)cc3)n2c1C", "growth (%)": 91.8}
{"molecule": "CCc1cccc2c1S/C(=C/c1ccc(Cl)cc1)C2=O", "growth (%)": 89.1}
{"molecule": "COc1ccc(S(=O)(=O)n2cc(C3OC(c4cc(OC)c(OC)c(OC)c4)=NN3C(C)=O)c3ccccc32)cc1OC (stereo not drawn)", "growth (%)": 89.1}

----------
The reader will find reported growth values listed item by item below.
# Tested on: SF-295 CNS
# test.method.notes: NCI-60 one-dose screen, 48 h (100 = growth as untreated, 0 = no growth, -100 = all killed)
# condition: 10 µM unless noted
# Method: Cells are grown in 96 well plates and exposed to the test compound for 48 hours. Compounds are tested at a single concentration, which is 10^-5 M for most compounds. The reported endpoint is percent growth (GI% or GIPRCNT), where numbers from 0 - 100% represent growth inhibition, and numbers from -100% - 0 represent cell death. For example, a value of 40 represents 60% growth inhibition. A value of 0 means no net growth occurred over the course of the experiment. […]
The panel holds about 83,000 compounds, 20% with a hit somewhere; the sample as a whole holds those more often.
value.type: growth (%)

{"molecular.string": "COc1ccc(/C=C2\\Oc3cc(OCCN4CCC(Cc5ccccc5)CC4)ccc3C2=O)cc1OC", "value.type": "growth", "measure.unit": "%", "numeric.value": 82.6}
{"molecular.string": "CCOC(=O)CCN(C(=O)Nc1ccccc1)C1CCCCC1", "value.type": "growth", "measure.unit": "%", "numeric.value": 108}
{"molecular.string": "O=C(O)CCC(=O)Nc1nnc(-c2ccccc2)s1", "value.type": "growth", "measure.unit": "%", "numeric.value": 96.9}
{"molecular.string": "N#Cc1c(Nc2cccc(Cl)c2)sc(C(=O)c2cc3cc(Cl)ccc3o2)c1N", "value.type": "growth", "measure.unit": "%", "numeric.value": 123}

----------
# System: NCI-H522 lung
# test.method.notes: NCI-60 one-dose screen, 48 h (100 = growth as untreated, 0 = no growth, -100 = all killed)
# condition: 10 µM unless noted
The panel holds about 83,000 compounds, 20% with a hit somewhere; the sample as a whole holds those more often.
The reader will find reported growth values listed item by item below.

{"compound": "O=C(Nc1ccc(F)cc1F)c1cc(F)ccc1O", "growth [%]": -6.24}
{"compound": "CNCCCC12CCC(c3ccccc31)c1ccccc12", "growth [%]": 88.8}
{"compound": "COc1ccc(CN2c3ccccc3CCc3ccccc32)cc1F", "growth [%]": -36}
{"compound": "CCC12CCC[N+]3([O-])CCC4(C(=Nc5ccccc54)C(O)(C(=O)OC)C1)C23 (centres undefined)", "growth [%]": 115}
{"compound": "COc1ccc(CNC(=O)C(=O)[C@H](Cc2ccccc2)NC(=O)c2[nH]c3ccccc3c(=O)c2C)cc1", "growth [%]": 96.4}
{"compound": "CC1(C)C2CC1C1(/C=N\\Nc3ccccc3)C(C2)C(C#N)(C#N)C1(C#N)C#N (centres undefined)", "growth [%]": 77.8}
{"compound": "COc1ccc(C(Cc2ccccc2)NCCN2CCOCC2)cc1 (centres undefined)", "growth [%]": 71.1}
{"compound": "NCCCNc1nc2ccccc2c2c(=O)c3cc(OC(F)(F)F)ccc3sc12", "growth [%]": -14.4}
{"compound": "COc1nc2ccccc2cc1-c1nc2c(cnn2-c2ccccc2)c(=O)[nH]1", "growth [%]": 21.6}
{"compound": "CCOC(=O)c1cn2ncnc(Oc3ccc(NC(=O)NCCN(C)C)c(Cl)c3)c2c1C", "growth [%]": 87.9}
{"compound": "O=c1c2cc(F)ccc2sc2c(N3CCNCC3)nc3ccccc3c12", "growth [%]": 39.3}
{"compound": "COc1ccc(-c2[nH]c3ccc(OC)cc3c2/C=C(\\C#N)S(=O)(=O)c2ccccc2)cc1", "growth [%]": 34.5}
{"compound": "NC1=NC(c2cccc(Br)c2)c2sc3ccc(Cl)cc3c2N1 (centres undefined)", "growth [%]": 87.8}
{"compound": "Cc1ccc2sc3c(NCCCN)nc4ccccc4c3c(=O)c2c1", "growth [%]": 59.4}

----------
# Test system: RPMI-8226 leukemia
# test.method.notes: NCI-60 one-dose screen, 48 h
# condition: 10 µM unless noted
# Protocol: Growth inhibition of the RPMI-8226 human tumor cell line is measured as a screen for anti-cancer activity. Cells are grown in 96 well plates and exposed to the test compound for 48 hours. Compounds are tested at a single concentration, which is 10^-5 M for most compounds. The reported endpoint is percent growth (GI% or GIPRCNT), where numbers from 0 - 100% represent growth inhibition, and numbers from -100% - 0 represent cell death. For example, a value of 40 represents 60% growth inhibition. […]
This is part of a sample that, as a whole, favours compounds with a hit. Of some 83,000 tested, about 20% had one in any assay. The source made the active and inactive calls. How the source made its calls: active means growth percent below 10; inactive means the rest.
Outcomes: yes (1) for active, no (0) for inactive

{"compound": "COc1ccc(OC)c(/C=C/C(=O)N/N=C/c2ccc(Cl)cc2)c1", "qualitative.label": "no (0)"}
{"compound": "Cc1ccc(/C=C2\\Oc3ccc(O)c(O)c3C2=O)cc1", "qualitative.label": "no (0)"}
{"compound": "COc1ccc(NC(=O)n2nc(/C=C\\c3ccc(O)c(OC)c3)cc2/C=C\\c2ccc(O)c(OC)c2)cc1", "qualitative.label": "no (0)"}
{"compound": "CC(=O)CC(c1ccccc1)c1c(C)[nH]c2ccccc12 (stereo not given)", "qualitative.label": "no (0)"}
{"compound": "CCc1ccc(Oc2c(-c3ccc(OCCc4cccc(C(F)(F)F)c4)cc3O)n[nH]c2C(F)(F)F)cc1", "qualitative.label": "yes (1)"}
{"compound": "Cc1ccc(C(=O)NCCNc2nccc(-c3c(-c4cccc(F)c4)nc4sccn34)n2)cc1", "qualitative.label": "no (0)"}
{"compound": "OC(c1ccccc1)C(NC(Cc1ccccc1)c1ccccc1)c1ccccc1 (stereo not given)", "qualitative.label": "no (0)"}
{"compound": "Oc1ccc(Cl)cc1Cc1cc(Cl)cc(Cl)c1O", "qualitative.label": "yes (1)"}
{"compound": "COc1ccc(-c2nn(C(=O)c3cc(OC)c(OC)c(OC)c3)c3cc(N)ccc23)cc1", "qualitative.label": "no (0)"}
{"compound": "O=C1c2ccccc2NC(n2sc3ccccc3c2=O)N1c1ccccc1 (stereo not given)", "qualitative.label": "no (0)"}
{"compound": "COc1cc(C(=O)/C=C/c2c(Cl)nc3sccn23)cc(OC)c1OC", "qualitative.label": "no (0)"}
{"compound": "COc1ccn2c(C(C)=O)cc(C(=O)c3ccc4c(c3)Sc3ccccc3N4)c2c1", "qualitative.label": "no (0)"}
{"compound": "CCCSc1nc2ccc(C)cc2cc1/C=[N+](\\[O-])c1ccccc1", "qualitative.label": "no (0)"}
{"compound": "c1ccc(Nc2cc(-c3cccnc3)[nH]n2)cc1", "qualitative.label": "no (0)"}
{"compound": "Oc1ccc(CCl)c2cccnc12", "qualitative.label": "no (0)"}

----------
# Tested on: MOLT-4 leukemia
# test.method.notes: NCI-60 one-dose screen, 48 h (100 = growth as untreated, 0 = no growth, -100 = all killed)
# condition: 10 µM unless noted
Compounds without any hit were thinned out: in the full panel of roughly 83,000, 20% have a hit.
Label scheme, based on growth: low-valued: < 20%; mid-valued: ≥ 20% and < 90%; high-valued: ≥ 90%

{"compound": "C[C@H]1[C@H]2[C@H]3CC[C@@H]4[C@@]5(C)CC[C@H](O)C(C)(C)[C@@H]5CC[C@@]4(C)[C@]3(C)CC[C@]23CO[C@]1(C)[C@@H](C(=O)/C=C\\c1cccnc1)C3", "qualitative.label": "mid-valued"}
{"compound": "NCCCNc1nc2ccccc2c2c(=O)c3cc(F)cc(F)c3sc12", "qualitative.label": "mid-valued"}
{"compound": "COc1cc(C(=O)c2cc(C)c3[nH]c4ccc(C)cc4c3c2C)cc(OC)c1OC", "qualitative.label": "low-valued"}
{"compound": "CCCCOc1nc2ccc(OC)cc2cc1-c1cc(-c2ccc(Cl)cc2)nc(-c2ccc(Cl)cc2)c1", "qualitative.label": "high-valued"}
{"compound": "COc1ccc2c(c1)c(-c1nn3cc(-c4cccs4)nc3s1)cn2C", "qualitative.label": "mid-valued"}
{"compound": "Cc1cc(O)c(C2=NN(c3ccc(S(N)(=O)=O)cc3)C(c3ccccc3O)C2)cc1Cl (centres undefined)", "qualitative.label": "low-valued"}
{"compound": "CNc1ccc(Nc2cccc(C)c2)c2c1C(=O)c1ccccc1C2=O", "qualitative.label": "mid-valued"}
{"compound": "CC(=O)N1N=C(c2ccc(Nc3nc(Nc4ccc(F)cc4)nc(Nc4ccc(Cl)cc4)n3)cc2)CC1c1ccc(Cl)cc1 (centres undefined)", "qualitative.label": "high-valued"}
{"compound": "NCCOc1ncccc1/C=C1\\c2ccccc2-c2ccc(C(F)F)cc21", "qualitative.label": "low-valued"}
